Target: SOS1:KRAS (G12C) interaction (Homo sapiens (Human), UniProt Q07889)
Sequence (Q07889 564-1049, stated change not applied): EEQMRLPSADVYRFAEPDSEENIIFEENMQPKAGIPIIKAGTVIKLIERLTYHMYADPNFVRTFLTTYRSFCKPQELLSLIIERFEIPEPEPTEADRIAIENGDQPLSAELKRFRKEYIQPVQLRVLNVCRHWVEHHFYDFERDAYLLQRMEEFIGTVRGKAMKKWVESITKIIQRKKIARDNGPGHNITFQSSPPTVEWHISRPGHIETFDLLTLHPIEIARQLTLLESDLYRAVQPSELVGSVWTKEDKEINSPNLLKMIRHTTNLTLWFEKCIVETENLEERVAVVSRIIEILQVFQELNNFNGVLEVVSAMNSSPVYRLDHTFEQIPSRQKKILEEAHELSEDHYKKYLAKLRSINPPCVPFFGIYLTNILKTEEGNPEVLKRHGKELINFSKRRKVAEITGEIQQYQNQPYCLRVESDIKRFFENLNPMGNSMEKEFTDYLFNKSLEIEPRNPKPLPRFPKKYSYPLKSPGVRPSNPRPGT
Test: SOS1 KRas(G12C) FRET Assay
Settings: 0.5 nM His10-SOS1 (res. 564-1049), 2.5 nM GST-KRAS G12C (res. 1-169), 2 hrs at RT
The threshold is 20 nM. Values of IC50 beneath it are tagged Satisfied; values meeting or exceeding it are tagged Not satisfied.

IC50 under 20 nM? Item: C[C@@H](NC(=O)c1cn(C2CC2)c(=O)cc1N[C@H]1[C@@H]2CN(C)C[C@@H]21)c1cccc(C(F)F)c1F [Example 101]
Not satisfied

Request: C[C@@H](NC(=O)c1cn([C@H]2C[C@@H](C3CC3)C2)c(=O)cc1N[C@H]1[C@@H]2CN(C)C[C@@H]21)c1cccc(C(F)F)c1F (single isomer, unassigned) [Example 248]
Not satisfied

Request: C[C@@H](NC(=O)c1cn([C@@]2(C(F)(F)F)CCOC2)c(=O)cc1N[C@H]1[C@@H]2CN(C)C[C@@H]21)c1cccc(C(F)F)c1F (single isomer, unassigned) [Example 234]
Satisfied

Request: C[C@@H](NC(=O)c1cn([C@@H]2CCOC[C@H]2F)c(=O)cc1N[C@H]1[C@@H]2CN(C)C[C@@H]21)c1cccc(C(F)F)c1F [Example 128]
Satisfied

Request: C[C@@H](NC(=O)c1cn([C@H]2CCOC[C@@H]2F)c(=O)cc1NC1CCN(C)CC1)c1cccc(C(F)F)c1F [Example 80]
Satisfied

Request: C[C@@H](NC(=O)c1cn(C2(C(F)F)CC2)c(=O)cc1N[C@@H]1[C@@H]2C[C@H]1CN(C)C2)c1cccc(C(F)F)c1F (single isomer, unassigned) [Example 250]
Not satisfied

Request: C[C@@H](NC(=O)c1cn([C@@H]2CC2(F)F)c(=O)cc1N[C@H]1[C@@H]2CN(C)C[C@@H]21)c1cccc(C(F)(F)F)c1F (single isomer, unassigned) [Example 199]
Satisfied

Request: Cc1c([C@@H](C)NC(=O)c2cn(C3CCOCC3)c(=O)cc2NC2CCN(C3CC3)CC2)cccc1C(F)(F)F [Example 284]
Not satisfied

Request: C[C@@H](NC(=O)c1cn(C2(C(F)F)CCC2)c(=O)cc1N[C@@H]1[C@@H]2C[C@H]1CN(C)C2)c1cccc(C(F)F)c1F (single isomer, unassigned) [Example 252]
Satisfied

Request: C[C@@H](NC(=O)c1cn(C23CC(C2)C3)c(=O)cc1N[C@@H]1CN2CCC1CC2)c1cccc(C(F)F)c1F [Example 156]
Satisfied

Where do these numbers come from? They come from patent US20230348424A1.
